- assay.remarks: Solubility of carriers
- Format: physicochemical
- condition.details: water, thermodynamic from solid; clear solution, pH 6.85
measurement.label: solubility (mg/mL)
Numbers only, in mg/mL.

query: Need solubility, item CC(C(=O)[O-])c1ccc(NC(=O)c2ccccc2O)cc1.[Na+] (stereo not shown) [Sodium Salt of Carrier B]
result: 200
